Target: pm3, modified CCR8 related peptide (human, sulfated tyrosine at Y17)
Sequence (peptide, as listed by the source): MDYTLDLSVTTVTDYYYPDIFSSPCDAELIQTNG
Experiment: ELISA on coated CCR8 peptide (500 ng/mL), OD [cont.]
observedProperty: binding result

binder	observedProperty	testResult
anti-CCR8 mAb 2-5 (antibody, V domains shown) VH: EVQLQQSGPELVKPGASVKISCKTSGYTFTEYTIHWVKQSHGKSLEWVGGINPDNGNTRYDQKFKGKATLTIDKSSSTAYMELRSLTSEDSAVYYCARVARSSGSGPYAMDYWGQGTSVTVSS VL: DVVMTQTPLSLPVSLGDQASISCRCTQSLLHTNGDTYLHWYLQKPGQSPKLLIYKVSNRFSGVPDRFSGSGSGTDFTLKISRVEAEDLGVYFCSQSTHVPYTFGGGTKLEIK	binding result	binds
anti-CCR8 mAb 2-4 (antibody, V domains shown) VH: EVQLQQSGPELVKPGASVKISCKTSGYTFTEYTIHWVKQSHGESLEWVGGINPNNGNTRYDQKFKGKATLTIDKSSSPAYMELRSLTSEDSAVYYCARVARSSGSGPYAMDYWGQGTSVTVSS VL: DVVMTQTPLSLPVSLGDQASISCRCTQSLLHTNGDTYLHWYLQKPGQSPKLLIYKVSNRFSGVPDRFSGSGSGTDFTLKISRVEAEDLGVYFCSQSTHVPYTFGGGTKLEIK	binding result	binds
anti-CCR8 mAb 2-2 (antibody, V domains shown) VH: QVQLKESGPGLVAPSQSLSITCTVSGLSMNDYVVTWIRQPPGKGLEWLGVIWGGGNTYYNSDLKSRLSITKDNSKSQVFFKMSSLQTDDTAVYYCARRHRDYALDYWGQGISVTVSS VL: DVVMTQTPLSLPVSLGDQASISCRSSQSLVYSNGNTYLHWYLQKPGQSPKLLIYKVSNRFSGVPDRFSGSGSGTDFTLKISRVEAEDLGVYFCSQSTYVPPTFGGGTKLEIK	binding result	binds
